Target: Kir1.1 (ROMK1) (Homo sapiens (Human), UniProt P48048)
Sequence (P48048 whole entry, species assumed): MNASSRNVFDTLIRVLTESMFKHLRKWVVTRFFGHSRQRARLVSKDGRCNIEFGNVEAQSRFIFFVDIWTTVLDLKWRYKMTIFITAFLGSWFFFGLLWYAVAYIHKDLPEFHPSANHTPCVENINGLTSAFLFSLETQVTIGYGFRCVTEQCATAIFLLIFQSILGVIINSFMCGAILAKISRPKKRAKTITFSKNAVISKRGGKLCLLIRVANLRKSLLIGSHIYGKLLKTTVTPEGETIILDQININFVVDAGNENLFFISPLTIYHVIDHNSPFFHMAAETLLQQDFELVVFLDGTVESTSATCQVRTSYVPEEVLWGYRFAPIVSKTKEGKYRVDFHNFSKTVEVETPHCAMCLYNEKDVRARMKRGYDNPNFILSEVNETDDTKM
Assay: Electrophysiology Assay (whole cell voltage clamp, IonWorks Quattro)
Format: cell-based
Conditions: Chinese hamster ovary cells stably expressing Kir1.1; block during voltage step to 0 mV
IC50 overview
measurement.kind: IC50 (nM)

molecule: O=C1C=C(N2CCC3(CCN(CCc4ccc5c(c4)COC5=O)CC3)C2=O)CO1 [Example 3]
target.under.test: Kir1.1 (ROMK1) (Homo sapiens (Human), UniProt P48048)
measurement.kind: IC50
unit.abbrev: nM
reported.measurement: 70
--
molecule: CO[C@@H](CN1CCC2(CC1)CCN(C1=CC(=O)OC1)C2=O)c1ccc2c(c1C)COC2=O [Example 51]
target.under.test: Kir1.1 (ROMK1) (Homo sapiens (Human), UniProt P48048)
measurement.kind: IC50
unit.abbrev: nM
reported.measurement: 20
--
molecule: Cc1c([C@@H](O)CN2CCC3(CC2)CC(C2CC2)N(C2=CC(=O)OC2)C3=O)ccc2c1COC2=O (single isomer, unassigned) [Example 69]
target.under.test: Kir1.1 (ROMK1) (Homo sapiens (Human), UniProt P48048)
measurement.kind: IC50
unit.abbrev: nM
reported.measurement: 30
--
molecule: CC1=C(N2CCCC3(CCN(C[C@H](O)c4ccc5c(c4C)COC5=O)CC3)C2=O)COC1=O [Example 9]
target.under.test: Kir1.1 (ROMK1) (Homo sapiens (Human), UniProt P48048)
measurement.kind: IC50
unit.abbrev: nM
reported.measurement: 10
--
molecule: CC1=C(N2CCC3(CCN(CC(O)c4ccc5c(c4C4CC4)COC5=O)CC3)C2=O)COC1=O (single isomer, unassigned) [Example 76]
target.under.test: Kir1.1 (ROMK1) (Homo sapiens (Human), UniProt P48048)
measurement.kind: IC50
unit.abbrev: nM
reported.measurement: 10
--
molecule: COC1CN(C[C@H](O)c2ccc3c(c2C)COC3=O)CCC12CCN(C1=C(C)C(=O)OC1)C2=O (stereo partly shown) [Example 83]
target.under.test: Kir1.1 (ROMK1) (Homo sapiens (Human), UniProt P48048)
measurement.kind: IC50
unit.abbrev: nM
reported.measurement: 50
--
molecule: Cc1c([C@@H](O)CN2CCC3(CC2)CCN(C2=CC(=O)OC2)C3=O)ccc2c1COC2=O [Example 5]
target.under.test: Kir1.1 (ROMK1) (Homo sapiens (Human), UniProt P48048)
measurement.kind: IC50
unit.abbrev: nM
reported.measurement: 4
--
molecule: Cc1c([C@H](O)CN2CCC3(CC2)CCN(C2=CC(=O)OC2)C3=O)ccc2c1COC2=O [Example 21]
target.under.test: Kir1.1 (ROMK1) (Homo sapiens (Human), UniProt P48048)
measurement.kind: IC50
unit.abbrev: nM
reported.measurement: 390
--
molecule: Cc1c([C@@H](O)CN2CCC3(CC2)CCN(C2=C(F)C(=O)OC2)C3=O)ccc2c1COC2=O [Example 22]
target.under.test: Kir1.1 (ROMK1) (Homo sapiens (Human), UniProt P48048)
measurement.kind: IC50
unit.abbrev: nM
reported.measurement: 4
--
molecule: Cc1c([C@@H](O)CN2CCC3(CCCN(C4=CC(=O)OC4)C3)CC2)ccc2c1COC2=O [Example 24]
target.under.test: Kir1.1 (ROMK1) (Homo sapiens (Human), UniProt P48048)
measurement.kind: IC50
unit.abbrev: nM
reported.measurement: 620
--
molecule: CC1=C(N2CCC3(CCN(C[C@H](O)c4ccc5c(c4C)COC5=O)CC3)C2=O)COC1=O [Example 7]
target.under.test: Kir1.1 (ROMK1) (Homo sapiens (Human), UniProt P48048)
measurement.kind: IC50
unit.abbrev: nM
reported.measurement: 10
--
molecule: CC1=C(N2CCC3(CCN(CC(O)c4ccc5c(c4Cl)COC5=O)CC3)C2=O)COC1=O (single isomer, unassigned) [Example 79]
target.under.test: Kir1.1 (ROMK1) (Homo sapiens (Human), UniProt P48048)
measurement.kind: IC50
unit.abbrev: nM
reported.measurement: 3
--
molecule: Cc1c([C@@H](O)CN2CCC3(CC2)CCN(C2=C(Cl)C(=O)OC2)C3=O)ccc2c1COC2=O [Example 25]
target.under.test: Kir1.1 (ROMK1) (Homo sapiens (Human), UniProt P48048)
measurement.kind: IC50
unit.abbrev: nM
reported.measurement: 10
--
molecule: CCc1c(C(O)CN2CCC3(CC2)CCN(C2=C(C)C(=O)OC2)C3=O)ccc2c1COC2=O (single isomer, unassigned) [Example 75]
target.under.test: Kir1.1 (ROMK1) (Homo sapiens (Human), UniProt P48048)
measurement.kind: IC50
unit.abbrev: nM
reported.measurement: 10
--
molecule: O=C1C=C(N2CCC3(CCN(CC4OCCc5c4ccc4c5COC4=O)CC3)C2=O)CO1 (racemic) [Example 52]
target.under.test: Kir1.1 (ROMK1) (Homo sapiens (Human), UniProt P48048)
measurement.kind: IC50
unit.abbrev: nM
reported.measurement: 60
--
molecule: Cc1c([C@@H](O)CN2CCC3(CCCN(C4=CC(=O)OC4)C3=O)CC2)ccc2c1COC2=O [Example 23]
target.under.test: Kir1.1 (ROMK1) (Homo sapiens (Human), UniProt P48048)
measurement.kind: IC50
unit.abbrev: nM
reported.measurement: 10
--
molecule: CC1=C(N2CCC3(CCN(CC(O)c4ccc5c(c4F)COC5=O)CC3)C2=O)COC1=O (single isomer, unassigned) [Example 80]
target.under.test: Kir1.1 (ROMK1) (Homo sapiens (Human), UniProt P48048)
measurement.kind: IC50
unit.abbrev: nM
reported.measurement: 10
--
molecule: CCC1CC2(CCN(C[C@H](O)c3ccc4c(c3C)COC4=O)CC2)C(=O)N1C1=CC(=O)OC1 (single isomer, unassigned) [Example 66]
target.under.test: Kir1.1 (ROMK1) (Homo sapiens (Human), UniProt P48048)
measurement.kind: IC50
unit.abbrev: nM
reported.measurement: 20
--
molecule: CC1=C(N2C(=O)C3(CCN(C[C@H](O)c4ccc5c(c4C)COC5=O)CC3)CC2C)COC1=O (single isomer, unassigned) [Example 30]
target.under.test: Kir1.1 (ROMK1) (Homo sapiens (Human), UniProt P48048)
measurement.kind: IC50
unit.abbrev: nM
reported.measurement: 20

Data provenance is patent US9206198B2.
